Target: T1, human Resistin (human, UniProt Q9HD89 19-108)
T1 construct: The sandwich ELISA used the R&D kit standard; also called hResistin; huRes
T1 sequence (looked up): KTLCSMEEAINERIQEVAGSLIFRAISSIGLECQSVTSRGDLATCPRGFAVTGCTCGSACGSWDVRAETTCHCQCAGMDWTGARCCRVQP
Experiment: QC ELISA, hResistin coated 5 µg/well, IgG supernatant, FITC-goat anti-human IgG

{"binder": "Clone 2 rIgG (antibody, V domains shown, Fully human IgG1 converted from scFv, tested as supernatant of expressing cells) VH: EVQLLESGGGLVQPGGSLRLSCAASGFTFSSYAMSWVRQAPGKGLEWVSTITTTGTATWYADSVKGRFTISRDNSKNTLYLQMNSLRAEDTAVYYCAKTLQRFDYWGQGTLVTVSS VL: DIQMTQSPSSLSASVGDRVTITCRASQSISSYLNWYQQKPGKAPKLLIYEASVLQSGVPSRFSGSGSGTDFTLTISSLQPEDFATYYCQQPRSLPMTFGQGTKVEIKR", "binding result": "binds"}
{"binder": "Clone 13 rIgG (antibody, V domains shown, Fully human IgG1 converted from scFv, tested as supernatant of expressing cells; Possibly the same clone as Ab13) VH: EVQLLESGGGLVQPGGSLRLSCAASGFTFSSYAMSWVRQAPGKGLEWVSSIYPQGLRTYYADSVKGRFTISRDNSKNTLYLQMNSLRAEDTAVYYCAKNLAKFDYWGQGTLVTVSS VL: DIQMTQSPSSLSASVGDRVTITCRASQSISSYLNWYQQKPGKAPKLLIYRASTLQSGVPSRFSGSGSGTDFTLTISSLQPEDFATYYCQQPRALPGTFGQGTKVEIKR", "binding result": "binds"}
{"binder": "Clone 1 rIgG (antibody, V domains shown, Fully human IgG1 converted from scFv, tested as supernatant of expressing cells; Possibly the same clone as Ab1) VH: EVQLLESGGGLVQPGGSLRLSCAASGFTFSSYAMSWVRQAPGKGLEWVSSISQRGRKTLYADSVKGRFTISRDNSKNTLYLQMNSLRAEDTAVYYCAKGLRRFDYWGQGTLVTVSS VL: DIQMTQSPSSLSASVGDRVTITCRASQSISSYLNWYQQKPGKAPKLLIYMASHLQSGVPSRFSGSGSGTDFTLTISSLQPEDFATYYCQQPRSTPLTFGQGTKVEIKR", "binding result": "binds"}
{"binder": "Clone 18 rIgG (antibody, V domains shown, Fully human IgG1 converted from scFv, tested as supernatant of expressing cells) VH: EVQLLESGGGLVQPGGSLRLSCAASGFTFSSYAMSWVRQAPGKGLEWVSTIHKTGSPTYYADSVKGRFTISRDNSKNTLYLQMNSLRAEDTAVYYCAKSLKYFDYWGQGTLVTVSS VL: DIQMTQSPSSLSASVGDRVTITCRASQSISSYLNWYQQKPGKAPKLLIYRASHLQSGVPSRFSGSGSGTDFTLTISSLQPEDFATYYCQQPRSLPATFGQGTKVEIKR", "binding result": "binds"}
